Literature compilation of pIC50 measurements on Type-1 angiotensin II receptor (Homo sapiens, UniProt P30556).
- TARGET_SYSTEM: Type-1 angiotensin II receptor (Homo sapiens, UniProt P30556)
- Sequence (P30556 whole entry): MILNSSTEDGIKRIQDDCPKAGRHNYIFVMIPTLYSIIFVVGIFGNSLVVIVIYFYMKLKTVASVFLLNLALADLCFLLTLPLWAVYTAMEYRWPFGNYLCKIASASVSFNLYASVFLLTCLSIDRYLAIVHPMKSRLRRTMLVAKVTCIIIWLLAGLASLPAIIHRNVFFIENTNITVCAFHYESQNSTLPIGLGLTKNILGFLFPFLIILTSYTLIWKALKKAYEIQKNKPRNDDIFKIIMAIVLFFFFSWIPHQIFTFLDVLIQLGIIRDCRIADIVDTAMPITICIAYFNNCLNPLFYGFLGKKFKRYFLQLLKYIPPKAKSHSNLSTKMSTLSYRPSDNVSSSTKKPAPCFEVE
pIC50: −log10 of the molar value.
METRIC_NAME: pIC50

Field: example entries. Status: answers known.
>>> df
                            smiles_notation  recorded_measurement
0  CCCc1nc(CNC(=O)C(c2ccccc2)c2ccccc2)c(C(=O)O)n1Cc1ccc(-c2ccccc2-c2nn[nH]n2)cc1                  8.00
1  CCCc1nc2c(C)cc(C(=O)NCCc3ccccc3)cc2n1Cc1ccc(-c2ccccc2S(=O)(=O)Nc2onc(C)c2C)cc1                  8.10
2  CCCc1nc(CN(CC(=O)O)C(=O)C(c2ccccc2)c2ccccc2)c(C(=O)O)n1Cc1ccc(-c2ccccc2-c2nn[nH]n2)cc1                  7.00
3  CCCc1nc(CC)c(C(=O)OCc2cccc(C(=O)N(c3ccccc3)c3ccccc3)c2)n1Cc1ccc(-c2ccccc2-c2nn[nH]n2)cc1                  7.52
4  CCCc1nc(CC)c(C(=O)OCc2ccccc2OCCC(C)C)n1Cc1ccc(-c2ccccc2S(=O)(=O)NC(=O)OCCC(C)C)cc1F                  8.52

P = CCCc1nc(CN2CCN(c3ccccn3)CC2)c(C=O)n1Cc1ccc(-c2ccccc2-c2nn[nH]n2)cc1
Q = CCCCCN(C(=O)c1ccc(O)cc1)c1ccc2ncn(Cc3ccc(-c4ccccc4-c4nnnn4C)cc3)c(=O)c2c1
### Prompt Quick check, higher pIC50 between P and Q ? Identify your pick by its label.
### Response P
(P: 8.70, Q: 8.31)

1 = CCc1nc2c(C)c(C)c(C)nc2n1[C@H]1CCc2cc(-c3ccccc3-c3nnn[nH]3)ccc21
2 = CCCc1nc(CC)c(C(=O)OCCN(C(=O)c2ccccc2)c2ccccc2)n1Cc1ccc(-c2ccccc2S(=O)(=O)NC(=O)OCCC(C)C)cc1F
3 = CCCCOC(=O)NS(=O)(=O)c1ccccc1-c1ccc(Cn2c(CCC)nc(CC)c2C(=O)NCCCOc2ccccc2)c(F)c1
4 = CCCc1nc(CN(Cc2ccccc2)C(=O)c2ccccc2)c(C(=O)O)n1Cc1ccc(-c2ccccc2S(=O)(=O)NC(=O)OCC(C)C)cc1
### Prompt List items by pIC50 in falling order. Answer by writing out the labels in the requested order.
### Response 2, 3, 4, 1

I = CCCc1nc(CN2CCN(c3ccccc3)C[C@H]2C)c(C(=O)O)n1Cc1ccc(-c2ccccc2-c2nnn[nH]2)cc1
II = CCCOC(=O)NS(=O)(=O)c1ccccc1-c1ccc(Cn2c(CCC)nc(CC)c2C(=O)OCc2ccccc2C(=O)c2ccccc2)c(F)c1
### Prompt Of I and II , whose reported pIC50 is numerically smaller? Identify your pick by its label.
### Response I
